assay: Caco-2 Permeability Assay; type: in vitro ADME; details: human, test compound 3 μM, 2 hours at 37° C., direction not given
Entries annotated with measured Papp at 2 h, 3 μM
Reply with just the number (in ×10⁻⁶ cm/s).

{"columns": ["smiles-structure", "readout-number"],
 "data": [
  ["CCCn1cc(-c2cnc(-c3cnc4cc(C#N)cnn34)cc2NC2CC2)nn1", 22.5],
  ["CC(C)Nc1cc(-c2cnc3cc(C#N)cnn23)ncc1-n1cc(CCC(C)(C)O)nn1", 29.5]
]}

Pending compound:
Data request: For the compound shown here, CCCc1cn(-c2cnc(-c3cnn4cc(C#N)cnc34)cc2NC(C)C)nn1 , give the reported Papp at 2 h, 3 μM.
Data returned: 34.7

* * *

Assay: Caco-2 Permeability Assay
Type: in vitro ADME
Settings: human, test compound 3 μM, 2 hours at 37° C., direction not given
Procedure: Caco-2 Permeability Assay Protocol Thirteen to 27 days prior to assay, Caco-2 cells were seeded onto collagen-coated polycarbonate filter membranes in 24-well transwell plates at a density of 1.45×10^5 cells/cm^2, approximately 4.8×10^4 cells per well. […] The cells were evaluated for tight junction formation just prior to assay. […] The samples were subsequently analyzed by LC-MS/MS to determine concentrations of compound.
readout: Papp at 2 h, 3 μM (×10⁻⁶ cm/s)
Note: unit ×10⁻⁶ cm/s is implicit; provide only the numeric part.

{"columns": ["smiles-structure", "measurement-units", "Papp at 2 h, 3 μM"],
 "data": [
  ["CCCc1cn(-c2cnc(-c3cnc4cc(C#N)cnn34)cc2NC(C)C)nn1", "×10⁻⁶ cm/s", 22.5],
  ["CC(C)(O)CCc1cn(-c2cnc(-c3cnn4cc(C#N)cnc34)cc2N[C@H]2CC[C@H](F)C2)nn1", "×10⁻⁶ cm/s", 13.4],
  ["CC(C)Nc1cc(-c2cnc3cc(C#N)cnn23)ncc1-c1cnn(CCC(C)(C)O)c1", "×10⁻⁶ cm/s", 13.6]
]}

Then this compound:
Data request: Item CCCc1cn(-c2cnc(-c3cnn4cc(Cl)cnc34)cc2NC(C)C)nn1 has what recorded Papp at 2 h, 3 μM?
Data returned: 17.9
